For each entry below, report its binding signal value.
experimental system: OsSMF1 (Oryza sativa, UniProt Q6ZLB0 1-436)
Sequence: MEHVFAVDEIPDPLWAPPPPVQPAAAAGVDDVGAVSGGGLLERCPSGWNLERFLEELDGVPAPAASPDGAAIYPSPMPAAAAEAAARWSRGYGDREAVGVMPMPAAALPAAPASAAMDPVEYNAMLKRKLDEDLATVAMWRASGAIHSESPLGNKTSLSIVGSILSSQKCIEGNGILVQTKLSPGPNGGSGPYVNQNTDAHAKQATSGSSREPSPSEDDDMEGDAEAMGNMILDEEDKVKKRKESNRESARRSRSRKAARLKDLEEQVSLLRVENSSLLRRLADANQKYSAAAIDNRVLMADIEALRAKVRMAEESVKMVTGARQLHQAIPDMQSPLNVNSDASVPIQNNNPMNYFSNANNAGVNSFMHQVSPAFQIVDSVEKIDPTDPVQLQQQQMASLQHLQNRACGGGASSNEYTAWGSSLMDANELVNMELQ
test description: protein-binding microarray (RPBM); PBS, 2% BSA, 51.3 ng/ul salmon testes DNA, 50 uM zinc acetate, 200 nM TF, 25 C, 1 h; high values mean tight binding
condition context: protein: recombinant; tags: N-terminal polyhistidine and DsRed monomer fusion (pET32a); chain copies: 2; label: CyDye5-dUTP incorporated in the synthesized complementary strand; 3' TTTTT single-stranded linker to array surface; dsDNA, one strand shown
The full ranking holds about 39,000 sequences; the median of “fluorescence intensity (a.u.)” is about 4,300, and the highest 2% start at about 39,000. This is one part of a sample in which the highest values are shown more often than they occur.

May I ask what binding signal has been recorded for CTCGCTGCTTCGCCCGCCACGTCACCCTCCTCCTCCTCCCCGGAGTCACCTAGTGCAG ?
62000 fluorescence intensity (a.u.)

Moving on to the next sequence: AGATGGGCTTGAGAATGTGATGTCTCGTTTAATTGGGCCCCGGAGTCACCTAGTGCAG
3310 fluorescence intensity (a.u.)

Moving on to the next sequence: CCTCGTCGCCGCGTCACGGCGTCAGCTCGCCGCTCTAGGGCGGAGTCACCTAGTGCAG
4820 fluorescence intensity (a.u.)

Moving on to the next sequence: GATCGAGCGGCAGGCCAGCAGTAACCTGGCCGAGAAGTTGCGGAGTCACCTAGTGCAG
64500 fluorescence intensity (a.u.)

Moving on to the next sequence: GCTGCTGCACCACGTCCTTCCTCTTCCTCGCCCCACCACCCGGAGTCACCTAGTGCAG
6380 fluorescence intensity (a.u.)

Moving on to the next sequence: CCACGCGCTCTATAAGTAGACGGCTCTTCGGCGCGTGTCACGGAGTCACCTAGTGCAG
3400 fluorescence intensity (a.u.)

Moving on to the next sequence: AGCTAAAATAAACTTTACCAAATTTTGGCAATGCCAAAATCGGAGTCACCTAGTGCAG
51800 fluorescence intensity (a.u.)

Moving on to the next sequence: AAGGAAGTCGTTTTGGACAGCGACACAGTCTCTAAAACACCGGAGTCACCTAGTGCAG
58900 fluorescence intensity (a.u.)

Moving on to the next sequence: TTCGCGCGCCACCTCCTCGCGCTCGCCTGCTTCTTCTCCCCGGAGTCACCTAGTGCAG
3380 fluorescence intensity (a.u.)

Moving on to the next sequence: TGTCCATGGTTTGTTGCTGCTGCGGTGGCACCAGTGCTGCCGGAGTCACCTAGTGCAG
7940 fluorescence intensity (a.u.)

Moving on to the next sequence: ACATTACCAAATTTTAACAATGCCAAAATTTTGGTAAGGTCGGAGTCACCTAGTGCAG
3450 fluorescence intensity (a.u.)

Moving on to the next sequence: GGTGTGTATTGACGCACCACGTATGTCTATCTTCTTTCGTCGGAGTCACCTAGTGCAG
3820 fluorescence intensity (a.u.)

Moving on to the next sequence: AATTATCTTGAAGCACCTCAACTCAACCTGATGTCATACACGGAGTCACCTAGTGCAG
4390 fluorescence intensity (a.u.)

Moving on to the next sequence: TGCGCCGATAGCTCCTGTCAACGTGTCACGCGCTGCGCCTCGGAGTCACCTAGTGCAG
8650 fluorescence intensity (a.u.)

Moving on to the next sequence: GCAAAAGCATCTTGGAGGAGATACAGTCAGCTGGCAATCCCGGAGTCACCTAGTGCAG
4160 fluorescence intensity (a.u.)

Moving on to the next sequence: GGCTTAAGTCAAGCTAATTTTAGATATTTATTATTTTGTGCGGAGTCACCTAGTGCAG
3900 fluorescence intensity (a.u.)

Moving on to the next sequence: ATATACAGTACACGTTCTTGCCCTCATTGCCACATAGTACCGGAGTCACCTAGTGCAG
4020 fluorescence intensity (a.u.)

Moving on to the next sequence: TTTGCTCGTTGGCAGCGGCCAGCAGGCACGTGTAACGGCGCGGAGTCACCTAGTGCAG
4190 fluorescence intensity (a.u.)

Moving on to the next sequence: ACCAAATTTTAGCAATACCAAAATTTTGGCATAGTTGCCACGGAGTCACCTAGTGCAG
7010 fluorescence intensity (a.u.)
